Sourced from ChEMBL document CHEMBL1153444

# CC50 per entry
# measurementProtocol: Cytotoxicity against human CEM cells
# Format: cell-based
# measurementContext: CEM cells (CCRF-CEM), read-out: TC50 (the source's name)
Answer with a number only, understood to be in µM.

Solved cases below.
cpdSmiles | endpointValue
COc1ccc(NC(=S)Nc2ccc3ccccc3c2)cc1 | 16.1
Cc1ccc(NC(=S)Nc2ccc(C)c([N+](=O)[O-])c2)cc1Cl | 38.8

Please look at the following compound next.
Which CC50 reading was recorded for the compound Cc1ccc(NC(=S)Nc2ccc(S(=O)(=O)Nc3cc(C)on3)cc2)cc1 ?
41.4

* * *

# measurementProtocol: Cytotoxicity against human CEM cells
# Type: cell-based
# measurementContext: CEM cells (CCRF-CEM), read-out: TC50 (the source's name)
quantityName: CC50 (µM)
Answer with a number only, understood to be in µM.

Solved cases below.
cpdSmiles | CC50, µM
CCN(CC)c1nc(C)c([N+](=O)[O-])c(NCCNC(=S)Nc2cccc(Br)c2)n1 | 26.2
Cc1ccccc1NC(=S)Nc1ccc2c(c1)C(=O)OC2 | 46.9
O=C1OCc2ccc(NC(=S)Nc3cccc(Br)c3)cc21 | 30.8

Please look at the following compound next.
Which CC50 reading was recorded for the compound O=C1OCc2ccc(NC(=S)Nc3cc(F)cc(F)c3)cc21 ?
69.1
